Reference source for all entries: the kinase profiling compilation of Christmann-Franck et al. (2016)

kinase still bound, per cent of control for assorted compounds
Test system: ABL1 (human), P00519 [Y253F]
Experiment notes: KINOMEscan competition binding
Test context: compound 10.0 µM

Compound: CC1=C(C(=O)Nc2cc3cn[nH]c3cc2F)C(c2ccc(C(F)(F)F)cc2)CC(=O)N1 (centres undefined)
kinase still bound, per cent of control [%]: 72
--
Compound: C=CC(=O)Nc1cc(NC(=O)c2ccc(C)c(NC(=O)c3ccno3)c2)cc(C(F)(F)F)c1
kinase still bound, per cent of control [%]: 63
--
Compound: COc1ccc(N(C(=O)Oc2c(C)cccc2C)c2ccnc(Nc3ccc(N4CCN(C)CC4)cc3)n2)c(OC)c1
kinase still bound, per cent of control [%]: 0.1
--
Compound: CCN1CCN(Cc2ccc(Nc3ncc4c(n3)N(C)c3ccccc3C(=O)N4C)cc2C(F)(F)F)CC1
kinase still bound, per cent of control [%]: 0.1
--
Compound: CCc1nc(-c2cccc(C)c2)c(-c2ccnc(NC(=O)c3ccccc3)c2)s1
kinase still bound, per cent of control [%]: 26
--
Compound: Cc1n[nH]c2ccc(-c3cncc(OC[C@@H](N)Cc4c[nH]c5ccccc45)c3)cc12
kinase still bound, per cent of control [%]: 100
--
Compound: COc1cc2ncn(-c3cc(OCc4ccccc4C(F)(F)F)c(C(N)=O)s3)c2cc1OC
kinase still bound, per cent of control [%]: 88
--
Compound: CCN(CC)CCCCNc1ncc2c(n1)N(C)C(=O)N(c1c(Cl)c(OC)cc(OC)c1Cl)C2
kinase still bound, per cent of control [%]: 100
--
Compound: COc1ccc(N(C(=O)Oc2cc(C(=O)Nc3cccc(C(F)(F)F)c3)ccc2C)c2ccnc(Nc3ccc(N4CCN(C)CC4)cc3)n2)c(OC)c1
kinase still bound, per cent of control [%]: 1.3

* * *

Tested target: UniProt P53350
Sequence (P53350 whole entry, looked up): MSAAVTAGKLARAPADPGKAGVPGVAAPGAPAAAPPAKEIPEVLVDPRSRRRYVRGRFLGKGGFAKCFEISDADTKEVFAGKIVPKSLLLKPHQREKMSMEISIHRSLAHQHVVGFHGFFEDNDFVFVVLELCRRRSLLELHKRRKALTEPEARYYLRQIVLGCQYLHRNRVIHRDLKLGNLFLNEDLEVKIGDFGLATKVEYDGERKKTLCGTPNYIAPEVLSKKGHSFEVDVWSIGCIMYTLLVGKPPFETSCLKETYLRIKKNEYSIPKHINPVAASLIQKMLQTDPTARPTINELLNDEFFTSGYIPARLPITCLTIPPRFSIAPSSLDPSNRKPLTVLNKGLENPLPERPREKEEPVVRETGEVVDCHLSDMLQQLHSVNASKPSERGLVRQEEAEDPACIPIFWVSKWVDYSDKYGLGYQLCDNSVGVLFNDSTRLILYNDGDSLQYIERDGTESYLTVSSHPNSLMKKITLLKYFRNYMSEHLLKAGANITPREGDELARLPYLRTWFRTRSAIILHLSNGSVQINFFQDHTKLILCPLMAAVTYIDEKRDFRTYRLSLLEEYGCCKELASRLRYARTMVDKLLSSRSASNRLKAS
Experiment notes: KINOMEscan competition binding
Test context: compound 10.0 µM

Molecular string: C[C@@H](Oc1cc(-c2cnn(C3CCNCC3)c2)cnc1N)c1c(Cl)ccc(F)c1Cl
kinase still bound, per cent of control / %: 83
--
Molecular string: C=CC(=O)Nc1cc(-n2c(=O)ccc3cnc4ccc(-c5cn[nH]c5)cc4c32)ccc1C
kinase still bound, per cent of control / %: 80
--
Molecular string: CNC(=O)c1cc(Oc2ccc(NC(=O)Nc3ccc(Cl)c(C(F)(F)F)c3)cc2)ccn1
kinase still bound, per cent of control / %: 100
--
Molecular string: CCN(CC)CCCCNc1ncc2cc(-c3cc(OC)cc(OC)c3)c(NC(=O)NC(C)(C)C)nc2n1
kinase still bound, per cent of control / %: 100
--
Molecular string: NC(=O)Nc1cc(-c2cccc(F)c2)sc1C(=O)N[C@@H]1CCCNC1
kinase still bound, per cent of control / %: 33
--
Molecular string: O=c1cc(N2CCOCC2)oc2c(-c3cccc4c3sc3ccccc34)cccc12
kinase still bound, per cent of control / %: 94
--
Molecular string: N#CCNC(=O)c1ccc(-c2ccnc(Nc3ccc(N4CCOCC4)cc3)n2)cc1
kinase still bound, per cent of control / %: 100
--
Molecular string: CNC(=O)c1ccc(Nc2cc(Nc3ccccc3S(=O)(=O)C(C)C)c3cc[nH]c3n2)nc1
kinase still bound, per cent of control / %: 19
--
Molecular string: COc1cc2ncnc(-n3nc(-c4ccccn4)nc3N)c2cc1OC
kinase still bound, per cent of control / %: 22

* * *

Tested target: AKT3 (human) (UniProt Q9Y243)
Sequence (Q9Y243 whole entry, looked up): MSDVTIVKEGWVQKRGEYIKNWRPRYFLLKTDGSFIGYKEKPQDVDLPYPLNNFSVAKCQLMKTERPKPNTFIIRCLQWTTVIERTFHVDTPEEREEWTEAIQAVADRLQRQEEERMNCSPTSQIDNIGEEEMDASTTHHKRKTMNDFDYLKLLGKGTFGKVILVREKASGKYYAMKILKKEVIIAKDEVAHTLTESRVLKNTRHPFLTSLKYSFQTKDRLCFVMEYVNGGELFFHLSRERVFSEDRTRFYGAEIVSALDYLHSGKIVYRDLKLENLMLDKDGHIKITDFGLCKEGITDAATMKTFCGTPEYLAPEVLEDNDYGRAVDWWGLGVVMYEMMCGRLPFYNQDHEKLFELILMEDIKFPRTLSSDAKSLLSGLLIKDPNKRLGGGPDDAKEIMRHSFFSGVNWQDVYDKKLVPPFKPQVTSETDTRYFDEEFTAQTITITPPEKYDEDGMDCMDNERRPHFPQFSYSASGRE
Experiment notes: KINOMEscan competition binding
Test context: compound 10.0 µM
Endpoint label: kinase still bound, per cent of control (%)

Molecular string: CNC(=O)c1cc(Oc2ccc(NC(=O)Nc3ccc(Cl)c(C(F)(F)F)c3)cc2)ccn1
Scale unit: %
Quantitative readout: 100
--
Molecular string: CCN1CCN(C(=O)Cc2ccc(Nc3ncc(F)c(Nc4ccc(C(=O)Nc5ccccc5Cl)cc4)n3)cc2)CC1
Scale unit: %
Quantitative readout: 100
--
Molecular string: CS(=O)(=O)N1CCN(Cc2cc3nc(-c4cccc5[nH]ncc45)nc(N4CCOCC4)c3s2)CC1
Scale unit: %
Quantitative readout: 100

* * *

Tested target: LRRK2 (human) (UniProt Q5S007)
Sequence (Q5S007 whole entry, looked up): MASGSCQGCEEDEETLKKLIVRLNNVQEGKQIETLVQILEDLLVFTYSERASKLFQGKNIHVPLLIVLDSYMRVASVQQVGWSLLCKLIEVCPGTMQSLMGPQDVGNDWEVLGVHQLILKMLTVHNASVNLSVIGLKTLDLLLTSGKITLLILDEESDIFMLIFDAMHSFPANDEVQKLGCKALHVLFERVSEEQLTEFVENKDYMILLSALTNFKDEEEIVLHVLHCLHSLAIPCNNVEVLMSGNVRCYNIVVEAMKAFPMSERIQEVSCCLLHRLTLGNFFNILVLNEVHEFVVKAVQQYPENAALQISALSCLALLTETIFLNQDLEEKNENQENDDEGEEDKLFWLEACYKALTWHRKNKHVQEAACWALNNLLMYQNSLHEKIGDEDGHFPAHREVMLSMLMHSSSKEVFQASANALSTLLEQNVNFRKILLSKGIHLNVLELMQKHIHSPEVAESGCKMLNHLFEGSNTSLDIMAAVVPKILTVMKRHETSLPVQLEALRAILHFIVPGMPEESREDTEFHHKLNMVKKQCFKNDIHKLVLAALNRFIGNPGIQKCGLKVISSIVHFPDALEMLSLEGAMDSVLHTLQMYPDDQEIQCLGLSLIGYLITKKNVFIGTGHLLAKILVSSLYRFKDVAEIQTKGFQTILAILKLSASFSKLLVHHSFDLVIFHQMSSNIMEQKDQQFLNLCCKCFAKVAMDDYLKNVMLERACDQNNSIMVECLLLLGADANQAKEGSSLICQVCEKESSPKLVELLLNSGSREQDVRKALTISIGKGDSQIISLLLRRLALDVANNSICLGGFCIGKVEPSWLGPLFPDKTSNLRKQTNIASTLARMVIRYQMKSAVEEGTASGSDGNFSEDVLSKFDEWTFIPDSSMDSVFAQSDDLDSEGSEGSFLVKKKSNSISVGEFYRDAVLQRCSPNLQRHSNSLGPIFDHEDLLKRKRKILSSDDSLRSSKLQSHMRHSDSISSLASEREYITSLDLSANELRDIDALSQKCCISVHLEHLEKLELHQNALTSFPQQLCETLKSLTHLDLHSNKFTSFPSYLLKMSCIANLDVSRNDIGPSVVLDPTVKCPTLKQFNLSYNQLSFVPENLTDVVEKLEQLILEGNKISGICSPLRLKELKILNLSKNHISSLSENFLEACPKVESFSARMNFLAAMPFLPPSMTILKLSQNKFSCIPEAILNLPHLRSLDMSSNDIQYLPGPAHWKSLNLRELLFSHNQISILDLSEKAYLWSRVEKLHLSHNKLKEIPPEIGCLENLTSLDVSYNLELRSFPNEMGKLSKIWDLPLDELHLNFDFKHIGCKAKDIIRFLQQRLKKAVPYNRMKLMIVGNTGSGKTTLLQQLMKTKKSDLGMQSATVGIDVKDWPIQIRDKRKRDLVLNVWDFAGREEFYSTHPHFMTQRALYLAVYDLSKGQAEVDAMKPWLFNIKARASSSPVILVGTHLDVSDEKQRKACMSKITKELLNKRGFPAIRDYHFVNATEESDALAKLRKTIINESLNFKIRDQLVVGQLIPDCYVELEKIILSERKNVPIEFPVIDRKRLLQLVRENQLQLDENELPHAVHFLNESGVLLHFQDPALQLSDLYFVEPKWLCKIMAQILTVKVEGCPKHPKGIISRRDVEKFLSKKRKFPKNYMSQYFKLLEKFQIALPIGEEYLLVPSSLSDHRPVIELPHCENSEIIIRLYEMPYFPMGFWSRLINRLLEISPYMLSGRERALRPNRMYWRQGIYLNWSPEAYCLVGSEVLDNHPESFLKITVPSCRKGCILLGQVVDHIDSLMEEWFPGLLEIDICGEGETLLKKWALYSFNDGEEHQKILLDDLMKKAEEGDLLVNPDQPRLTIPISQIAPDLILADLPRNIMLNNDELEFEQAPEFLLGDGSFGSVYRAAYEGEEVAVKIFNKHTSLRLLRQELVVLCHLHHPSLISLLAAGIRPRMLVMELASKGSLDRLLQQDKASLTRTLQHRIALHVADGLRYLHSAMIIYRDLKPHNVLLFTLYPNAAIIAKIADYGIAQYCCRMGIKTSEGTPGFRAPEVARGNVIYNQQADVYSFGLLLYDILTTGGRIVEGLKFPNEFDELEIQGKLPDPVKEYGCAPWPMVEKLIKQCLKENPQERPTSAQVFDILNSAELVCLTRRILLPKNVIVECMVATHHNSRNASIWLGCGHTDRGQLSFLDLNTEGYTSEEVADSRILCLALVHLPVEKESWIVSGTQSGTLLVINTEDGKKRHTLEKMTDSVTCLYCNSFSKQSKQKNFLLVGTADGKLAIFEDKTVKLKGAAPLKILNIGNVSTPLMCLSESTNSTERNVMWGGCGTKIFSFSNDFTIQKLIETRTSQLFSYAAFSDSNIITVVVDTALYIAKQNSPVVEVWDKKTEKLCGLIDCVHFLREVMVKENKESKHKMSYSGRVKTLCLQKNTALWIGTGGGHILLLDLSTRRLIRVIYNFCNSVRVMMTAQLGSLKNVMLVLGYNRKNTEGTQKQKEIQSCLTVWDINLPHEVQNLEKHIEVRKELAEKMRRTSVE
Experiment notes: KINOMEscan competition binding
Test context: compound 10.0 µM
Note to self: use Satisfied only for kinase still bound, per cent of control readings below 50%; a reading exactly at 50% still gets Not satisfied.

Molecular string: COc1cc(C(=O)N2CCC(N3CCN(C)CC3)CC2)ccc1Nc1ncc2c(n1)N(C)c1ccccc1C(=O)N2C
Tested target: LRRK2 (human) (UniProt Q5S007)
Discrete label: Satisfied
//
Molecular string: CCN1CCN(C(=O)Cc2ccc(Nc3ncc(F)c(Nc4ccc(C(=O)Nc5ccccc5Cl)cc4)n3)cc2)CC1
Tested target: LRRK2 (human) (UniProt Q5S007)
Discrete label: Not satisfied
//
Molecular string: COc1ccc(N(C(=O)Oc2c(C)cccc2C)c2ccnc(Nc3ccc(N4CCN(C)CC4)cc3)n2)c(OC)c1
Tested target: LRRK2 (human) (UniProt Q5S007)
Discrete label: Not satisfied
//
Molecular string: C=CC(=O)Nc1cc(-n2c(=O)ccc3cnc4ccc(-c5cn[nH]c5)cc4c32)ccc1C
Tested target: LRRK2 (human) (UniProt Q5S007)
Discrete label: Satisfied
//
Molecular string: O=C(Nc1cccc(Nc2ncc(Br)c(NCCc3cnc[nH]3)n2)c1)N1CCCC1
Tested target: LRRK2 (human) (UniProt Q5S007)
Discrete label: Satisfied
//
Molecular string: COCC(=O)NC/C=C/c1ccc2ncnc(Nc3ccc(Oc4ccc(C)nc4)c(C)c3)c2c1
Tested target: LRRK2 (human) (UniProt Q5S007)
Discrete label: Not satisfied
//
Molecular string: C[C@@H](Oc1cc(-c2cnn(C3CCNCC3)c2)cnc1N)c1c(Cl)ccc(F)c1Cl
Tested target: LRRK2 (human) (UniProt Q5S007)
Discrete label: Not satisfied
//
Molecular string: NC(=O)Nc1cc(-c2cccc(F)c2)sc1C(=O)N[C@@H]1CCCNC1
Tested target: LRRK2 (human) (UniProt Q5S007)
Discrete label: Satisfied
//
Molecular string: COc1cc2ncnc(-n3nc(-c4ccccn4)nc3N)c2cc1OC
Tested target: LRRK2 (human) (UniProt Q5S007)
Discrete label: Satisfied
//
Molecular string: CN(C)C/C=C/C(=O)Nc1ccc(C(=O)Nc2cccc(Nc3nccc(-c4cccnc4)n3)c2)cc1
Tested target: LRRK2 (human) (UniProt Q5S007)
Discrete label: Not satisfied
//
Molecular string: O=c1cc(N2CCOCC2)oc2c(-c3cccc4c3sc3ccccc34)cccc12
Tested target: LRRK2 (human) (UniProt Q5S007)
Discrete label: Not satisfied
//
Molecular string: CNC(=O)c1cc(Oc2ccc(NC(=O)Nc3ccc(Cl)c(C(F)(F)F)c3)cc2)ccn1
Tested target: LRRK2 (human) (UniProt Q5S007)
Discrete label: Not satisfied
//
Molecular string: COc1cc2ncn(-c3cc(OCc4ccccc4C(F)(F)F)c(C(N)=O)s3)c2cc1OC
Tested target: LRRK2 (human) (UniProt Q5S007)
Discrete label: Not satisfied
//
Molecular string: N#CCNC(=O)c1ccc(-c2ccnc(Nc3ccc(N4CCOCC4)cc3)n2)cc1
Tested target: LRRK2 (human) (UniProt Q5S007)
Discrete label: Satisfied
//
Molecular string: O=C1NC(=O)/C(=C/c2ccc3nccc(-c4ccncc4)c3c2)S1
Tested target: LRRK2 (human) (UniProt Q5S007)
Discrete label: Not satisfied

* * *

kinase still bound, per cent of control for assorted compounds
Tested target: MAPK4 (human) (UniProt P31152)
Sequence (P31152 whole entry, looked up): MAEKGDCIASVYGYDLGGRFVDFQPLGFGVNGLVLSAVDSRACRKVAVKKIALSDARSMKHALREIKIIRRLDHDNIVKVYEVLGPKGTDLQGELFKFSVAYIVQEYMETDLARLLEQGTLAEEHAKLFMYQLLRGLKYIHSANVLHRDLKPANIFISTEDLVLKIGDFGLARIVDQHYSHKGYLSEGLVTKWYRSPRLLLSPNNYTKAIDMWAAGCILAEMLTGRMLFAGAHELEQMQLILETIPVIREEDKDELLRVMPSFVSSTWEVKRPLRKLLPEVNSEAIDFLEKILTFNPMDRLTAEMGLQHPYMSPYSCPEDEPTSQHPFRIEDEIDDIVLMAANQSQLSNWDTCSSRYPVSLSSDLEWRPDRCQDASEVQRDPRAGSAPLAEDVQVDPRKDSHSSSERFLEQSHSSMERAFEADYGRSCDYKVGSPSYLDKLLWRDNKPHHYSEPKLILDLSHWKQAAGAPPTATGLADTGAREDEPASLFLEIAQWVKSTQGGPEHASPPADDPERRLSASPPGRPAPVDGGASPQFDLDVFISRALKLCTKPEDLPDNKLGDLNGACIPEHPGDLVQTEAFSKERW
Experiment notes: KINOMEscan competition binding
Test context: compound 10.0 µM

Molecular string: Cc1n[nH]c2ccc(-c3cncc(OC[C@@H](N)Cc4c[nH]c5ccccc45)c3)cc12
Scale unit: %
kinase still bound, per cent of control: 100
//
Molecular string: CNC(=O)c1cc(Oc2ccc(NC(=O)Nc3ccc(Cl)c(C(F)(F)F)c3)cc2)ccn1
Scale unit: %
kinase still bound, per cent of control: 100
//
Molecular string: COc1cc(N2CCN(C)CC2)ccc1Nc1ncc2c(n1)N(C)c1ccccc1C(=O)N2C
Scale unit: %
kinase still bound, per cent of control: 100
//
Molecular string: NC(=O)Nc1cc(-c2cccc(F)c2)sc1C(=O)N[C@@H]1CCCNC1
Scale unit: %
kinase still bound, per cent of control: 61

* * *

kinase still bound, per cent of control for assorted compounds
Tested target: STK39 (human)
Experiment notes: KINOMEscan competition binding
Test context: compound 10.0 µM
Endpoint label: kinase still bound, per cent of control (%)

Molecular string: CNC(=O)c1cc(Oc2ccc(NC(=O)Nc3ccc(Cl)c(C(F)(F)F)c3)cc2)ccn1
Quantitative readout: 100
//
Molecular string: C[C@@H](Oc1cc(-c2cnn(C3CCNCC3)c2)cnc1N)c1c(Cl)ccc(F)c1Cl
Quantitative readout: 99
//
Molecular string: COc1cc(C(=O)N2CCC(N3CCN(C)CC3)CC2)ccc1Nc1ncc2c(n1)N(C)c1ccccc1C(=O)N2C
Quantitative readout: 39
//
Molecular string: COCC(=O)NC/C=C/c1ccc2ncnc(Nc3ccc(Oc4ccc(C)nc4)c(C)c3)c2c1
Quantitative readout: 100
//
Molecular string: COc1cc2ncn(-c3cc(OCc4ccccc4C(F)(F)F)c(C(N)=O)s3)c2cc1OC
Quantitative readout: 89
